- SYSTEM: Bcl-xL, Q07817
- Sequence (Q07817 1-209): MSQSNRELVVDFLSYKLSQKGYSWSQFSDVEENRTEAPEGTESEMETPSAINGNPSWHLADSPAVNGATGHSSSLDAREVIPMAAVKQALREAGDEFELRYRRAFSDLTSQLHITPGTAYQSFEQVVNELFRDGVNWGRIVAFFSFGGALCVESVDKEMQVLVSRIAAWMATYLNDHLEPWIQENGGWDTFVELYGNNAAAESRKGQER
- PROTOCOL_DESCRIPTION: peptide SPOT array, c-Myc-tagged receptor at 1 uM or 100 nM, anti-c-Myc-Cy3
PROPERTY: SPOT signal as a fraction of Bim BH3's signal on the same receptor and array
Please give the numeric answer without any surrounding text.

* SKFVILSAHKLVFILDTLTRQVTAQD [NEDD9] | 0.06
* LGRTGQVCLFLKRGADQHALDQEQRD [ACAP3] | 0.41
* SPYVFNGGTIDAIAGEDFAIVASDTR [PSMB1] | 0.01
* GQISDEVAERLMTIAYESGVNLFDTA [KCNAB1] | 0.02

// recorded SPOT signal as a fraction of Bim BH3's signal on the same receptor and array for SWFIQSLCAMLKQYLDKLEFMHILTR [CASP3] : 0.27

// recorded SPOT signal as a fraction of Bim BH3's signal on the same receptor and array for LKELDLSGNSLSHSLVKSLCKTLRRP [NLRP1] : 0.28

// recorded SPOT signal as a fraction of Bim BH3's signal on the same receptor and array for ADVHGIWSRLFCDFGDEFEVLDTTGE [UBA6] : 0.07
